Data origin: patent EP1247803A2

Each item that follows carries a reported Biochem EGFR %Inhibition.
- TEST TARGET: EGFR (Homo sapiens)
- Construct: Add 7 ug A431 cell lysate per well (EGFR source); endogenous in cells; host or cells: A431
- Sequence (P00533 25-1210): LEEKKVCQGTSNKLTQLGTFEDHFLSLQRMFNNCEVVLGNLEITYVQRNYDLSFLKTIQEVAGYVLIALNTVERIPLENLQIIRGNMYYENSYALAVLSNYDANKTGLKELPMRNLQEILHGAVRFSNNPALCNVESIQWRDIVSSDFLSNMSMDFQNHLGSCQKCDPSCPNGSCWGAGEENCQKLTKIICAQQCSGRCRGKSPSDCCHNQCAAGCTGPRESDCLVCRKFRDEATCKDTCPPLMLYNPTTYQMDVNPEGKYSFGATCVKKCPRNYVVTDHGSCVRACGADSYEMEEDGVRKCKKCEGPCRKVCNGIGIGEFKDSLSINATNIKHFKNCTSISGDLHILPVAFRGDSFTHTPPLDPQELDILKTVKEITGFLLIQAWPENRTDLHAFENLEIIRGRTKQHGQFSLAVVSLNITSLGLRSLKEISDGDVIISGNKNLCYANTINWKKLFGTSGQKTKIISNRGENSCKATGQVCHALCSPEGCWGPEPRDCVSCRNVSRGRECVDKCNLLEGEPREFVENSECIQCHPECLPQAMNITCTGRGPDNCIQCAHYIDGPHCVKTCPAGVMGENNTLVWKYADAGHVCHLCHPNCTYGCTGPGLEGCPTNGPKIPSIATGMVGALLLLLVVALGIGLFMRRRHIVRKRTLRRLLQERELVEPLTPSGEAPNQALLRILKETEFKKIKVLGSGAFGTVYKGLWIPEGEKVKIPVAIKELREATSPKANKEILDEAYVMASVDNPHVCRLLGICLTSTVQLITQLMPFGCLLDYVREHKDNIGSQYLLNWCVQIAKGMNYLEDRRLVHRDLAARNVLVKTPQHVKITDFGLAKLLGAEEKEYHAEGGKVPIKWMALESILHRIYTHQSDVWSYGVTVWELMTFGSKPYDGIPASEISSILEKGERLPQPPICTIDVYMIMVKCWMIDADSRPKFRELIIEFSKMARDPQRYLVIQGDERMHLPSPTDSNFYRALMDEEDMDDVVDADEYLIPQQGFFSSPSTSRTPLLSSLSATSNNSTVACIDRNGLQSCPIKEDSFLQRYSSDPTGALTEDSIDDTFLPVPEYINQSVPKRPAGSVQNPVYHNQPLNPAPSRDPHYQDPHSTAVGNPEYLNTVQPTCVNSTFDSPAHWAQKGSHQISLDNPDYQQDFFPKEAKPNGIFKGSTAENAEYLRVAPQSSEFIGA
- PROTOCOL DESCRIPTION: EGFR ELISA assay (in vitro kinase activity, EGFR captured from A431 cell lysate)
- Format: biochemical
- Parameters: concentration or dose not given beside the values
Provide the reading as a plain figure in %.

Study these solved cases before continuing.
COMPOUND: Cc1c(Br)ccc2c1C(=Cc1ccc(F)cc1)C(=O)N2
Biochem EGFR %Inhibition, %: 13.1
--
COMPOUND: CNS(=O)(=O)c1ccc2c(c1)C(=Cc1c[nH]c(=O)[nH]c1=O)C(=O)N2
Biochem EGFR %Inhibition, %: 16.8
--
COMPOUND: Cc1cc(C=C2C(=O)Nc3ccc(CCCl)cc32)cc(C)c1OCc1ccccc1
Biochem EGFR %Inhibition, %: 18.1

Could you tell me which Biochem EGFR %Inhibition is on file for CC(=O)Oc1ccc(C=C2C(=O)Nc3ccc(I)cc32)cc1OC(C)=O ?
36.4

Returns the measured Biochem EGFR %Inhibition for the input compound. Input: COC1CC(C=C2C(=O)Nc3ccc(S(=O)(=O)Nc4ccc(C(F)(F)F)cc4)cc32)C(OC)O1 (centres unmarked)
9.3

====

- TEST TARGET: FLK-1 receptor (Mus musculus)
- Construct: expressed in transfected cells; host or cells: NIH3T3 C7#3
- Sequence (P35918 20-1345): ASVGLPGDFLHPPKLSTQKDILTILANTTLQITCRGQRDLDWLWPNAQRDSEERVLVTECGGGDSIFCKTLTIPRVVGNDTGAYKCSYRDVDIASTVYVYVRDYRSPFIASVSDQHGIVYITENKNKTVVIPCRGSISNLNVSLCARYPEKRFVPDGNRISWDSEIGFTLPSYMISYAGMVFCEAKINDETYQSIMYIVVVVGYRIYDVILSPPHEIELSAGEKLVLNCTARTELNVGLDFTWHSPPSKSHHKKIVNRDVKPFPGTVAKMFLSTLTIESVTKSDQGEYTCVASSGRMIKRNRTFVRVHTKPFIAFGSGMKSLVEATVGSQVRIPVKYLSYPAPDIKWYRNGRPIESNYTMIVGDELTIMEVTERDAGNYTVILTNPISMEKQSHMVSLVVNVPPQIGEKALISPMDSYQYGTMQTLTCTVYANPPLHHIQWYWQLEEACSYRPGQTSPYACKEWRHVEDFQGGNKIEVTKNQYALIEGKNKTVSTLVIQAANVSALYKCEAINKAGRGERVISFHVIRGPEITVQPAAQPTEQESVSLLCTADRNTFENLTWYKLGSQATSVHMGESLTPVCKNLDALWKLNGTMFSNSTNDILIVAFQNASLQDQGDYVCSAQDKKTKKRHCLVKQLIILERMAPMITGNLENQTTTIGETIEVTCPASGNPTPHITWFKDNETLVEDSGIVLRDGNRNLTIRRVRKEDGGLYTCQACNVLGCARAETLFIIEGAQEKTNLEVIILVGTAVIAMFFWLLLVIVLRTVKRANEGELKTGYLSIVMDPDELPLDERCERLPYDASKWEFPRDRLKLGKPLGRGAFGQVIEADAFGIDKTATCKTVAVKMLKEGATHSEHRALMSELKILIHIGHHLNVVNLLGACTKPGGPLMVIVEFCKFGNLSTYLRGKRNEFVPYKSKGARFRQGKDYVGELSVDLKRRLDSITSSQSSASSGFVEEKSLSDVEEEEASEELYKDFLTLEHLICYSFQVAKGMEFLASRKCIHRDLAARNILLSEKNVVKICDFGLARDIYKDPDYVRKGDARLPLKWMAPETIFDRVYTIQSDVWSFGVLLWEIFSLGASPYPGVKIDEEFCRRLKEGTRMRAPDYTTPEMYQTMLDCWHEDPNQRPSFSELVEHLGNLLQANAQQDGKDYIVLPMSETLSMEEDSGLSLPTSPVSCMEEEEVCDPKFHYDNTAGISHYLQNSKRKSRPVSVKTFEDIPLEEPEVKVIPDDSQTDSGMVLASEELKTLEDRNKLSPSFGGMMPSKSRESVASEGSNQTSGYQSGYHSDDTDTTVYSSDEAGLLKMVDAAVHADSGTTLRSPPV
- PROTOCOL DESCRIPTION: FLK-1 ELISA (kinase activity of the FLK-1 receptor in FLK-1/NIH3T3 cells, VEGF stimulated)
- Format: cell-based
- Design: concentration or dose not given beside the values
Quick list: Fik Kinase %Inhibition per entry.
# unit: % | format: bare number

COMPOUND: Cc1c(Br)ccc2c1C(=Cc1coc3ccc(Cl)cc3c1=O)C(=O)N2 [10730/C06]
Fik Kinase %Inhibition / %: 5.3

COMPOUND: CNS(=O)(=O)c1ccc2c(c1)C(=Cc1c[nH]c3ccc(OC)cc13)C(=O)N2 [10731/D09]
Fik Kinase %Inhibition / %: 6.1

COMPOUND: CCOC(=O)CCc1c(C(=O)OCC)[nH]c(C=C2C(=O)Nc3ccc(S(=O)(=O)NC)cc32)c1CC(=O)OCC [10718/D05]
Fik Kinase %Inhibition / %: 11.5

COMPOUND: CCn1c2ccccc2c2cc(C=C3C(=O)Nc4ccc(S(=O)(=O)N5CCOCC5)cc43)ccc21 [10731/F02]
Fik Kinase %Inhibition / %: 11.1

COMPOUND: CNS(=O)(=O)c1ccc2c(c1)C(=Cc1ccc(O)c(C)c1O)C(=O)N2 [10718/D09]
Fik Kinase %Inhibition / %: -9.1

Given the entry CC(C)(C)c1cc(C=C2C(=O)Nc3ccc(S(=O)(=O)N4CCOCC4)cc32)cc(Cl)c1OCc1ccccc1 [10732/F10] , report its measured Fik Kinase %Inhibition.
14.1

# get_value(readout='Fik Kinase %Inhibition', item= COc1cc(O)ccc1C=C1C(=O)Nc2ccc(Br)c(C)c21 [10720/C03] )
15.1

====

- Tested on: MET
- PROTOCOL DESCRIPTION: MET biochemical kinase assay
- Parameters: species or system human; concentration or dose not given beside the values
Reported values of Met Kinase % Inhibition for individual entries
Just the number plus its unit, please.

COMPOUND: O=C1Nc2c(Br)cc(Br)cc2C1=Cc1ccc(Br)o1 [10726/A05]
TEST TARGET: MET
Met Kinase % Inhibition: 75.2%

COMPOUND: O=C1Nc2ccc(I)cc2C1=Cc1ccc(-c2ccccc2Cl)o1 [10730/B07]
TEST TARGET: MET
Met Kinase % Inhibition: 63.1%

COMPOUND: O=C1Nc2ccc(S(=O)(=O)Nc3ccc(C(F)(F)F)cc3)cc2C1=Cc1cc2ccccc2o1 [10724/E07]
TEST TARGET: MET
Met Kinase % Inhibition: 46.8%

Tell me the measured Met Kinase % Inhibition of CNS(=O)(=O)c1ccc2c(c1)C(=Cc1cc([N+](=O)[O-])c(OC)c(C(C)(C)C)c1)C(=O)N2 [10733/D03] , please.
32.8%

Need Met Kinase % Inhibition of O=C1Nc2ccc(I)cc2C1=Cc1cc(C(F)(F)F)ccc1F [10728/B08] , thanks.
77.0%
